Target: T1, Peptide-2 (cysteine pairing not given here; also: biotinylated (site not given here))
T1 peptide: IDFCAVYKWPVCQV
Test Name: ELISA, Fab on captured biotin-peptide
Where no end group is shown, it is not given here.
Experimental Endpoint: pEC50
One number for each entry, as −log10 of the molar value.

Each binder below has a reported value. Please supply its pEC50.
1. TBD-17 (HC S104A) (Fab, V domains shown, Fab; also called HC S104A mutant) VH: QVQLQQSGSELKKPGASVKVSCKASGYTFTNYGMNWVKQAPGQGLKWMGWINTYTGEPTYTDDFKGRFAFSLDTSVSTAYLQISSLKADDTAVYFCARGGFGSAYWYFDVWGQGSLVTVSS VL: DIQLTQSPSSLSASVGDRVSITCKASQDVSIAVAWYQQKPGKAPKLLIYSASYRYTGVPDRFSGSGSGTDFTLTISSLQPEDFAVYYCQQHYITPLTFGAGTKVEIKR
2. TBD-11 (HC R98A) (Fab, V domains shown, Fab; also called HC R98A mutant) VH: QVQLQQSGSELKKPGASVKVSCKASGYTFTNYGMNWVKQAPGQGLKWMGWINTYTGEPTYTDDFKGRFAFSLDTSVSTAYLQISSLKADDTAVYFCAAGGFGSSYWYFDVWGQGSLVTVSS VL: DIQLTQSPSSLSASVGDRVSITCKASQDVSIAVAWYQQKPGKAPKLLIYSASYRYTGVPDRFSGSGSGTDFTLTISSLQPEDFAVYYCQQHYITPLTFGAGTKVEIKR
3. TBD-1 wt (Fab, V domains shown, Fab; the heavy chain entry is VH-CH1; also called wild-type anti-TROP2 Fab (hRS7); TROP2 Fab) VH: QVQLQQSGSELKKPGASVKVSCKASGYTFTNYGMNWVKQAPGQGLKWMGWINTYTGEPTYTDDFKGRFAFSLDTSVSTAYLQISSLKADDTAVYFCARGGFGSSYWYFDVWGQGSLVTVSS VL: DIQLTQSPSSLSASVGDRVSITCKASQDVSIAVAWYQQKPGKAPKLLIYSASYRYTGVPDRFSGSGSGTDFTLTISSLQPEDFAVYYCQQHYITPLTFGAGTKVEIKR

Result:
[8.24, 6.69, 7.86]
